Where do the numbers come from? From BindingDB's records for doi:10.1021/acschembio.6b00962.

Listing: IC50 of selected substances
molecular target: Apoptosis regulator Bcl-2 (Homo sapiens, UniProt P10415); test: DELFIA
Sequence (P10415 whole entry): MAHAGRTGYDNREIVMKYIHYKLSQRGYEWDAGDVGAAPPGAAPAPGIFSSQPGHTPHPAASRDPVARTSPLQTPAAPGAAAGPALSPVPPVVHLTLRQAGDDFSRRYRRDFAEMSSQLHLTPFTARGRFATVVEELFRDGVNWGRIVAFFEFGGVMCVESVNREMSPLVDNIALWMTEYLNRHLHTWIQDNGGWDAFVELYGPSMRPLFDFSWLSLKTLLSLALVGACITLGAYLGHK

Ac-CATQLRRFGDKLN-NH2
> 1000 nM

Let us examine a further case.
Give a short answer stating reported IC50 for Ac-CATQLRRFGDKLNFRQKLLN-NH2 . > 1000 nM

----------
target: Induced myeloid leukemia cell differentiation protein Mcl-1 (Homo sapiens, UniProt Q07820); assay: DELFIA
Sequence (Q07820 whole entry): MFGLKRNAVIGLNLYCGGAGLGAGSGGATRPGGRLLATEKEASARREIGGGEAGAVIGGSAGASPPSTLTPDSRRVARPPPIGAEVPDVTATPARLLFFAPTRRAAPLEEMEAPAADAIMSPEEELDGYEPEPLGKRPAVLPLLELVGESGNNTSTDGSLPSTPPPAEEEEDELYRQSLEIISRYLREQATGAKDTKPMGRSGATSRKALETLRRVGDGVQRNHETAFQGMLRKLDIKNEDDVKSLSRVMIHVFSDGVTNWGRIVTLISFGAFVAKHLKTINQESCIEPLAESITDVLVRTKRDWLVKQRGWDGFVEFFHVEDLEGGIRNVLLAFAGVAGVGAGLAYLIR
measurementName: IC50

Lab note: Induced myeloid leukemia cell differentiation protein Mcl-1 (Homo sapiens, UniProt Q07820) assay, enter IC50 for CC1(C)CCC(CN2CCN(c3ccc(C(=O)NS(=O)(=O)c4ccc(NCC5CCOCC5)c([N+](=O)[O-])c4)c(Oc4cnc5[nH]ccc5c4)c3)CC2)=C(c2ccc(Cl)cc2)C1 here > 1 µM

----------
Molecular target: Bcl-2-related protein A1 [1-149] (Human)
Construct: 1-149
Sequence (Q16548 whole entry): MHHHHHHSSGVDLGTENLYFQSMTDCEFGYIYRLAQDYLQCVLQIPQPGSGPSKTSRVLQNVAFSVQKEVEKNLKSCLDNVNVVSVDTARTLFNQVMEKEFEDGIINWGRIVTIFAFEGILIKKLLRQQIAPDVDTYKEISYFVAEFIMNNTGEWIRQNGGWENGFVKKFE
Assay: DELFIA
measurementName: IC50 (nM)
Kindly provide the numeric value in nM only, without the unit symbol.

Ac-CATQLRRFGDKLN-NH2
15

Let us examine a further case.
Lab note: Bcl-2-related protein A1 [1-149] (Human) assay, enter IC50 for Ac-CATQLRRFGDKLNFRQKLLN-NH2 here 7.5
